The measurements presented in this section are drawn from patent US6620828B2.

Tested on: human umbilical vein endothelial cells (HUVEC)
Experiment: HUVEC proliferation assay
Assay type: cell-based
Conditions: Homo sapiens, HUVEC, Table 3
Mark each entry Criterion met if its IC50 sits below 0.01 µM, and Criterion not met for all others.

Previously resolved entries follow.
* Cc1cccc(C(=O)Nc2cccc(-c3noc(-c4sc(NC(=O)NC(C)C)nc4N)n3)c2)c1 | Criterion not met
* COc1cc(Nc2nc(N)c(-c3nc(-c4cc(NC(=O)c5cccc(Cl)c5)ccc4F)no3)s2)cc(OC)c1OC | Criterion met
* COCC(C)NC(=O)Nc1nc(N)c(-c2nc(-c3cc(NC(=O)c4cccc(OC)c4)c(F)cc3F)cs2)s1 (stereo not shown) | Criterion not met
* COc1cc(Nc2nc(N)c(-c3nc(-c4cccc(-c5nc(CC(C)C)n[nH]5)c4)no3)s2)cc(OC)c1OC | Criterion not met

Req: hey, is IC50 for COc1cc(Nc2nc(N)c(-c3nc(-c4cccc(NC(=O)CC5CC6CCC5C6)c4)cs3)s2)cc(OC)c1OC (stereo not shown) lower than 0.01 µM or not?
Resp: Criterion not met

Req: Below 0.01 µM on IC50? Entry COc1cc(Nc2nc(N)c(-c3nc(-c4cc(N)c(F)cc4F)no3)s2)cc(OC)c1OC
Resp: Criterion not met

Req: State whether 0.01 µM exceeds IC50 recorded for COc1cccc(C(=O)Nc2cc(-c3noc(-c4sc(NC(=O)NCC(C)C)nc4N)n3)c(F)cc2F)c1 .
Resp: Criterion met
